# Target Or Test System: UniProt P56817
# Sequence (P56817 whole entry): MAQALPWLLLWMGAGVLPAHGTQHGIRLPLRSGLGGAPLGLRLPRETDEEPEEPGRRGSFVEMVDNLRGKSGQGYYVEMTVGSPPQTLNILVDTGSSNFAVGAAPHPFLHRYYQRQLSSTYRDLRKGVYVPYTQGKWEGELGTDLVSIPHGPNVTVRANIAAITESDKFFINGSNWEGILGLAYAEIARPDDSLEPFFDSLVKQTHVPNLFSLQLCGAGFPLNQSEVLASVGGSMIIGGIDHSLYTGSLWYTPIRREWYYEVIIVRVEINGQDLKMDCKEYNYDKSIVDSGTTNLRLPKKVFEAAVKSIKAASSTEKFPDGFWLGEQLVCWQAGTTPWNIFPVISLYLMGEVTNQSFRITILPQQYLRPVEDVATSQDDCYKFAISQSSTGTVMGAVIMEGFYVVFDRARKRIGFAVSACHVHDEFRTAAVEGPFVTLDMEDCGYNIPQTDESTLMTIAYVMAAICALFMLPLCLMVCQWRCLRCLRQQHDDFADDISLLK
# Protocol: Inhibition of human recombinant BACE1 at 0.2 uM by FRET assay
Endpoint: inhibition (%)

Use these answered entries as a reference point.
COC[C@H]1CCCN1C(=O)c1cc(C(=O)N[C@@H](Cc2ccccc2)[C@H](O)C(=O)Nc2cccc(-c3nn[nH]n3)c2)cc([N+](=O)[O-])c1
57
C[C@@H](NC(=O)c1cc(C(=O)N[C@@H](Cc2ccccc2)[C@H](O)C(=O)Nc2cccc(-c3nn[nH]n3)c2)cc([N+](=O)[O-])c1)c1ccc(F)cc1
50
O=C(N[C@@H](Cc1ccccc1)[C@H](O)C(=O)Nc1cccc(-c2nn[nH]n2)c1)c1cc(I)cc(C(=O)N2COC[C@@H]2c2ccccc2)c1
78
CCC(C)[C@H]1COCN1C(=O)c1cc(C(=O)N[C@@H](Cc2ccccc2)[C@H](O)C(=O)Nc2cccc(-c3nn[nH]n3)c2)cc([N+](=O)[O-])c1 (stereo partly specified)
62

a = Cc1cc(C(=O)N[C@@H](Cc2ccccc2)[C@H](O)C(=O)Nc2cccc(-c3nn[nH]n3)c2)cc(C(=O)N2COC[C@@H]2c2ccccc2)c1
b = CC(C)C[C@H]1COCN1C(=O)c1cc(C(=O)N[C@@H](Cc2ccccc2)[C@H](O)C(=O)Nc2cccc(-c3nn[nH]n3)c2)cc([N+](=O)[O-])c1
**Q:** Which entry shows the lesser value of inhibition here, a or b ? Record your answer as the label of the chosen record.
**A:** b
(b: 42%, a: 65%)

Just for reference, ChEMBL document CHEMBL2046367 is where these values come from.
